Test system: SUDV (glycoprotein, VSV pseudotype)
PROCEDURE TEXT: microbe, parasite or virus in culture
Format: cell-based, Sudan ebolavirus
RUN PARAMETERS: Vesicular stomatitis virus, Vero, 24 h, read-out: EC50 Pseudotype Assays SUDV
Consider the following molecules and their measured EC50 readings.
Report the figure in nM without appending any unit label.

{"MOLECULE": "C[C@]12CC3CC(C(=O)N[C@H]4CN5CCC4CC5)(C1)C[C@@](c1ccccc1)(C3)C2 [Example B58]", "UNIT LABEL": "nM", "EC50": 220}
{"MOLECULE": "C[C@]12CC3CC(C(=O)N4CCC(N)CC4)(C1)C[C@@](c1ccccc1)(C3)C2 [Example B7]", "UNIT LABEL": "nM", "EC50": 116}
{"MOLECULE": "CC12CC3CC(C(=O)N[C@@H]4CCCN5CCC[C@H]45)(C1)CC(c1ccccc1)(C3)C2 (mixture of isomers) [Example A59]", "UNIT LABEL": "nM", "EC50": 400}
{"MOLECULE": "CC1(C)CN(C(=O)C23CC4C[C@@](C)(C2)C[C@](c2ccccc2)(C4)C3)CC[C@H]1N [Example B12]", "UNIT LABEL": "nM", "EC50": 200}
{"MOLECULE": "NC1CCN(CC23CC4CC(C2)CC(c2ccccc2)(C4)C3)CC1 [Example A68]", "UNIT LABEL": "nM", "EC50": 400}
{"MOLECULE": "CCC12CC3CC(C(=O)NC4CCNCC4(C)C)(C1)CC(c1ccccc1)(C3)C2 (racemic) [Example A20]", "UNIT LABEL": "nM", "EC50": 330}

Consider the record given below.
Identify measured EC50 corresponding to CC12CC3CC(C(=O)NC4CCNCC4)(C1)CC(c1ccccc1)(C3)C2 (racemic) [Example A1]
380

----------
RUN PARAMETERS: microsomes, 1 h
REPORTED PROPERTY: Liver Microsome Stability % Remaining after 60 Minutes, Mouse
Report the figure along with its unit, number first.

The following compounds have reported results that may help.
{"COMPOUND": "CC1(C)CN(C(=O)C23CC4C[C@@](C)(C2)C[C@](c2ccccc2)(C4)C3)CCC1N (stereo partly shown) [Example B8]", "OBSERVED": "47%"}
{"COMPOUND": "CC12CC3CC(CN4CCC(N)CC4)(C1)CC(c1ccccc1)(C3)C2 (stereo not shown) [Example A69]", "OBSERVED": "100%"}
{"COMPOUND": "C[C@@]12CC3CC(C(=O)NC4CCNCC4)(CC(c4ccccc4)(C3)C1)C2 [Example B1]", "OBSERVED": "87%"}

Now turn to the next compound.
Give the measured Liver Microsome Stability % Remaining after 60 Minutes, Mouse for C[C@]12CC3CC(C(=O)N4CCC(N)CC4)(C1)C[C@@](c1ccccc1)(C3)C2 [Example B7]
77%

----------
PROCEDURE TEXT: in vivo
RUN PARAMETERS: male, CD-1, mouse, po, 10 mg/kg
REPORTED PROPERTY: AUC(0-inf) (ng·h/mL)
Response body: numeric value in ng·h/mL, unit text excluded.

Give the measured AUC(0-inf) for CC12CC3CC(C(=O)N[C@H]4CC[C@@H](N)CC4)(C1)CC(c1ccccc1)(C3)C2.Cl (mixture of isomers)
4040

----------
RUN PARAMETERS: microsomes, 1 h
Short version: Liver Microsome Stability % Remaining after 60 Minutes, Guinea Pig at least 70% is t, less is f.

Does the molecule CC12CC3CC(CN4CCC(N)CC4)(C1)CC(c1ccccc1)(C3)C2 (stereo not shown) have recorded Liver Microsome Stability % Remaining after 60 Minutes, Guinea Pig that is 70% or more?
f

# bool: Liver Microsome Stability % Remaining after 60 Minutes, Guinea Pig of CC12CC3CC(C(=O)N4CCC(N)C(C)(C)C4)(C1)CC(c1ccccc1)(C3)C2 (racemic) >= 70%
f

Does the reported Liver Microsome Stability % Remaining after 60 Minutes, Guinea Pig for CC1(C)CN(C(=O)C23CC4C[C@@](C)(C2)C[C@](c2ccccc2)(C4)C3)CCC1N (stereo partly shown) fall at or above the 70% mark?
f

For this molecule, is measured Liver Microsome Stability % Remaining after 60 Minutes, Guinea Pig 70% or higher? CC12CC3CC(C(=O)N4CCC5(CC4)CNC5)(C1)CC(c1ccccc1)(C3)C2 (racemic)
t

Hi, just wondering whether "CC1(C)CN(C(=O)C23CC4C[C@@](C)(C2)C[C@](c2ccccc2)(C4)C3)CC[C@@H]1N" shows Liver Microsome Stability % Remaining after 60 Minutes, Guinea Pig of 70% or higher.
f

Please tell me: is the molecule "C[C@]12CC3CC(C(=O)N[C@H]4CC[C@@H](N)CC4)(C1)C[C@@](c1ccccc1)(C3)C2.Cl" at or over 70% in terms of Liver Microsome Stability % Remaining after 60 Minutes, Guinea Pig?
t

----------
PROCEDURE TEXT: in vitro
RUN PARAMETERS: human, Caco-2
REPORTED PROPERTY: Papp B→A (×10⁻⁶ cm/s)
Form entry: value (×10⁻⁶ cm/s) — number only.

{"COMPOUND": "C[C@]12CC3CC(C(=O)N[C@H]4CC[C@@H](N)CC4)(C1)C[C@@](c1ccccc1)(C3)C2.Cl", "Papp B→A (×10⁻⁶ cm/s)": 7.86}

Field: next compound
Note down Papp B→A recorded for CC12CC3CC(C(=O)N[C@H]4CC[C@@H](N)CC4)(C1)CC(c1ccccc1)(C3)C2.Cl (mixture of isomers)
15.6

----------
PROCEDURE TEXT: in vitro
RUN PARAMETERS: African green monkey, Cytotox CC50
Labelling field: enter y if recorded CC50 is less than 20 µM. Enter n if it equals or exceeds that cut-off.

{"COMPOUND": "CC12CC3CC(C(=O)N4CC[C@@H](N)C4)(C1)CC(c1ccccc1)(C3)C2 (mixture of isomers)", "CLASS LABEL": "y"}
{"COMPOUND": "C[C@]12CC3CC(C(=O)N[C@H]4CC[C@H](CN)CC4)(C1)C[C@@](c1ccccc1)(C3)C2", "CLASS LABEL": "y"}
{"COMPOUND": "CC12CC3CC(C(=O)N4CCC(N)C(C)(C)C4)(C1)CC(c1ccccc1)(C3)C2 (racemic)", "CLASS LABEL": "y"}
{"COMPOUND": "CC12CC3CC(C(=O)N4CC5(CCNC5)C4)(C1)CC(c1ccccc1)(C3)C2 (racemic)", "CLASS LABEL": "n"}
{"COMPOUND": "CC1CC(N)CCN1C(=O)C12CC3CC(C)(C1)CC(c1ccccc1)(C3)C2 (racemic)", "CLASS LABEL": "n"}
{"COMPOUND": "CC12CC3CC(C(=O)N4CCC5(CC5N)C4)(C1)CC(c1ccccc1)(C3)C2 (racemic)", "CLASS LABEL": "n"}
{"COMPOUND": "N[C@H]1CC[C@@H](NC(=O)C23CC4CC(CF)(C2)CC(c2ccccc2)(C4)C3)CC1 (mixture of isomers)", "CLASS LABEL": "n"}

# input for lookup
I'd appreciate it if you could check whether CC12CC3CC(C(=O)N4CCC[C@H](N)C4)(C1)CC(c1ccccc1)(C3)C2 (mixture of isomers) has CC50 smaller than 20 µM.
y

----------
Readings of pIC50 for the listed compounds
TESTED ON: Cyp-p450 2B6 (Homo sapiens)
Sequence (P20813 whole entry): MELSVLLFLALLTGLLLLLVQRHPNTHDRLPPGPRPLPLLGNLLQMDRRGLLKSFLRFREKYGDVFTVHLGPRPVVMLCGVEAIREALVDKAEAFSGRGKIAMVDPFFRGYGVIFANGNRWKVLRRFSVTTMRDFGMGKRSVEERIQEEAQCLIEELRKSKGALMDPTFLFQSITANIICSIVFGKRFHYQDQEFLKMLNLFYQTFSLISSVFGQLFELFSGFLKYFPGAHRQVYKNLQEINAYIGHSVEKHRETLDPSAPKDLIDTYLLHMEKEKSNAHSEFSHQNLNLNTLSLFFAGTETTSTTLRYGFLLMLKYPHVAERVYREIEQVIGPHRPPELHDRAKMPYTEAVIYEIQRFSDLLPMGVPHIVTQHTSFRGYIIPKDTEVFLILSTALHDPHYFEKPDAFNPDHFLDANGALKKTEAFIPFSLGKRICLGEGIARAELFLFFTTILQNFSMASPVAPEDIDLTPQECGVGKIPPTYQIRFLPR
pIC50: −log10 of the molar value.

{"COMPOUND": "C[C@]12CC3CC(C(=O)N[C@H]4CC[C@@H](N)CC4)(C1)C[C@@](c1ccccc1)(C3)C2.Cl [Example B2]", "pIC50": "< 4.00"}

Lab note: next compound to report on.
Specify measured pIC50 for CC12CC3CC(C(=O)N[C@H]4CC[C@@H](N)CC4)(C1)CC(c1ccccc1)(C3)C2.Cl (mixture of isomers) [Example A2] .
< 4.00

----------
Tested on: SUDV (glycoprotein, VSV pseudotype)
PROCEDURE TEXT: microbe, parasite or virus in culture
Assay type: cell-based, Sudan ebolavirus
RUN PARAMETERS: Vesicular stomatitis virus, Vero, 24 h, read-out: EC50 Pseudotype Assays SUDV
Measured pEC50 accompanies every entry in the list below.
Would you please state pEC50, meaning minus log10 of the concentration in mol/L, as a bare number?

Record excerpt, results attached:
{"MOLECULE": "CC12CC3CC(C(=O)N4CCC(N)CC4)(C1)CC(c1ccccc1)(C3)C2 (racemic)", "REPORTED PROPERTY": "pEC50", "OBSERVED": 6.52}
{"MOLECULE": "CC12CC3CC(C(=O)N4CCC5(CC4)CNC5)(C1)CC(c1ccccc1)(C3)C2 (racemic)", "REPORTED PROPERTY": "pEC50", "OBSERVED": 7.46}
{"MOLECULE": "CC1(C)CN(C(=O)C23CC4C[C@](C)(C2)C[C@@](c2ccccc2)(C4)C3)CCC1N (stereo partly shown)", "REPORTED PROPERTY": "pEC50", "OBSERVED": 6.26}
{"MOLECULE": "CCC12CC3CC(C(=O)N[C@H]4CCN[C@@H](C)C4)(C1)CC(c1ccccc1)(C3)C2 (mixture of isomers)", "REPORTED PROPERTY": "pEC50", "OBSERVED": 6.38}
{"MOLECULE": "CCC1CNCCN1C(=O)C12CC3CC(C)(C1)CC(c1ccccc1)(C3)C2 (racemic)", "REPORTED PROPERTY": "pEC50", "OBSERVED": 6.89}

Attention now shifts to the item below.
Input CCC12CC3CC(C(=O)N[C@H]4CC[C@H](CN)CC4)(C1)CC(c1ccccc1)(C3)C2 (mixture of isomers) , output reported pEC50.
6.38
